Experiment: Acute toxicity assay
Assay type: in vivo, Artemia franciscana
Conditions: Artemia franciscana, in vivo, pH 8.5
OBSERVED PROPERTY: LC50

Query CCCC(CCC)C(=O)O yields LC50 of > 1000 µg/mL

###

Assay: Acute toxicity assay
Format: in vivo, Artemia franciscana
Conditions: Artemia franciscana, in vivo, pH 8.5
OBSERVED PROPERTY: LC50 at 48 h (mM)
// units = mM; emit number, no label

Query CCCC(CCC)C(=O)O yields LC50 at 48 h of 18.7
